Target: MdWRKY71 (Malus x domestica, UniProt A0A7S5AU16 1-327)
Sequence (A0A7S5AU16 entry or part of it): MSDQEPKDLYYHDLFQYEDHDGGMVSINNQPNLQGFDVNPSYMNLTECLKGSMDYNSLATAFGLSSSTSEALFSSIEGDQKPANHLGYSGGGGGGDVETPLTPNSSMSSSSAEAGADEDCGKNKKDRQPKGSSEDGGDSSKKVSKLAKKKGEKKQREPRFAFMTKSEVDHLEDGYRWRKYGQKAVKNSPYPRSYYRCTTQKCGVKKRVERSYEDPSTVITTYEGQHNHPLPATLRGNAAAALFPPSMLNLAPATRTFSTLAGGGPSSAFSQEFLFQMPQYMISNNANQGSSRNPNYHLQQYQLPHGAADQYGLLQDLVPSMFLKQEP
Assay: EMSA; LightShift Chemiluminescent EMSA Kit per manufacturer; buffer, salt, pH and temperature not stated
Settings: protein: recombinant; tags: His (pET32a); label: biotin
value type: binding result

> print(dat)
                                     binder      result
1  ProMdANS W-box probe (dsDNA) DNA 1: ATCCCAGATGTGTTGACTGTTCATGCTCAG DNA 2: CTGAGCATGAACAGTCAACACATCTGGGAT       binds
2  ProMdMADS1 W-box2 mutant probe (dsDNA) DNA 1: ATTTACTATTTTTAGCATTACAATTT DNA 2: AAATTGTAATGCTAAAAATAGTAAAT  no binding
3  ProMdDFR W-box probe (dsDNA) DNA 1: TGGGACTCTTCATTGACTCTCCGCCACATC DNA 2: GATGTGGCGGAGAGTCAATGAAGAGTCCCA       binds
4  ProMdMADS1 W-box1 mutant probe (dsDNA) DNA 1: ACTTTGTGGCTTTAGCATTTTGAAGA DNA 2: TCTTCAAAATGCTAAAGCCACAAAGT  no binding
5  ProMdMADS1 W-box3 mutant probe (dsDNA) DNA 1: CCTGAGGTTATTAACGCCAAAAGAAAA DNA 2: TTTTCTTTTGGCGTTAATAACCTCAGG  no binding
